test: xn = mol fraction of the nth substance listed, in the solute-free solvent; conditions: 323.15 K; x2 = 0.2
measurement.label: solubility (g/100 g solution)
Write the number on its own, no unit after it.

Examples from the recorded data:
CC(C)C(=O)Nc1ccc([N+](=O)[O-])c(C(F)(F)F)c1 + CC(C)=O + CC(C)O = 61.9
CC(C)C(=O)Nc1ccc([N+](=O)[O-])c(C(F)(F)F)c1 + C1CCOC1 + CC(C)O = 61
CC(C)C(=O)Nc1ccc([N+](=O)[O-])c(C(F)(F)F)c1 + CCOC(C)=O + CC(C)O = 59.2

Proceeding to the next compound to report its solubility (g/100 g solution).
[Q] Provide only the value of recorded solubility (g/100 g solution) for Cl.NC1CCSC1=O (centres undefined) + CO + CC#N
[A] 0.6

* * *

Below, each entry is listed with its recorded solubility (g/100 g solution).
assay: xn = mol fraction of the nth substance listed, in the solute-free solvent; settings: 298.15 K; x2 = 0.08908

O=C1C=CC(=O)N1c1ccccc1Br + CCO + O = 2.39
Nc1ncc(Br)nc1Br + CCO + O = 0.116
CC(C)C(=O)Nc1ccc([N+](=O)[O-])c(C(F)(F)F)c1 + CCO + O = 0.0499
O=c1cc(CBr)c2ccccc2[nH]1 + CCO + O = 0.0569

Proceeding to the next molecule to report its solubility (g/100 g solution).
[Q] Provide only the value of recorded solubility (g/100 g solution) for Nc1cc(-c2ccncc2)c[nH]c1=O + CCO + O
[A] 0.00334

* * *

test: xn = mol fraction of the nth substance listed, in the solute-free solvent; conditions: 313.15 K; x2 = 0.2
Below, each entry is listed with its recorded solubility (g/100 g solution).
Write the number on its own, no unit after it.

Examples from the recorded data:
CC(C)C(=O)Nc1ccc([N+](=O)[O-])c(C(F)(F)F)c1 + CCOC(C)=O + CC(C)O = 51.8
Cl.NC1CCSC1=O (centres undefined) + CO + CC#N = 0.556
CC(C)C(=O)Nc1ccc([N+](=O)[O-])c(C(F)(F)F)c1 + CC(C)=O + CC(C)O = 55.4

Proceeding to the next compound to report its solubility (g/100 g solution).
[Q] Provide only the value of recorded solubility (g/100 g solution) for CC(C)C(=O)Nc1ccc([N+](=O)[O-])c(C(F)(F)F)c1 + C1CCOC1 + CC(C)O
[A] 53.3

* * *

test: xn = mol fraction of the nth substance listed, in the solute-free solvent; details: 298.15 K; x2 = 0.4117
measurement.label: solubility (g/100 g solution)
Write the number on its own, no unit after it.

Examples from the recorded data:
O=c1cc(CBr)c2ccccc2[nH]1 + CCCO + O = 0.155
CC(C)C(=O)Nc1ccc([N+](=O)[O-])c(C(F)(F)F)c1 + CC(C)O + O = 12.8
Nc1ncc(Br)nc1Br + CC(C)O + O = 0.312
O=c1cc(CBr)c2ccccc2[nH]1 + CC(C)O + O = 0.112

Proceeding to the next compound to report its solubility (g/100 g solution).
[Q] Provide only the value of recorded solubility (g/100 g solution) for O=C1C=CC(=O)N1c1ccccc1Br + CC(C)O + O
[A] 7.75
